- assay system: T1, V domain of human CD33 (human, UniProt P20138 18-139, limits assumed)
- T1 construct: recombinant, fully glycosylated V domain; also called Human CD33 V domain
- test protocol: SPR, Fab captured, 37C;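 further: Anti-CD33 Fabs captured on anti-Fab chip, soluble monomeric CD33 or its domains flowed over at several concentrations, double-referenced data fitted 1:1, Kd taken as koff/kon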
observation type: kon
Please make sure the unit comes right after the number.

binder	result
ADI-11826 Fab (Fab, V domains shown, Fab fragment; also called Ab26) VH: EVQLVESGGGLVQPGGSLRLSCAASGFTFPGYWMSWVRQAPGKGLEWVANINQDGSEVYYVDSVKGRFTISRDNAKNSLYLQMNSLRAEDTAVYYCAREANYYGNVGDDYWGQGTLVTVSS VL: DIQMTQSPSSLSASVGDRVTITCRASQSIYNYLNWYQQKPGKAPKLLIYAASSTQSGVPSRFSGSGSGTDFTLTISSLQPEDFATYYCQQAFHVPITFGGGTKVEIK	5.12e+06 M⁻¹ s⁻¹
ADI-11825 Fab (Fab, V domains shown, Fab fragment; also called Ab25) VH: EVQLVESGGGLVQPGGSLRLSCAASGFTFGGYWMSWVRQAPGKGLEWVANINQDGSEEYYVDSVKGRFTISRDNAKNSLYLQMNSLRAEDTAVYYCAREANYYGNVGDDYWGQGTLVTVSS VL: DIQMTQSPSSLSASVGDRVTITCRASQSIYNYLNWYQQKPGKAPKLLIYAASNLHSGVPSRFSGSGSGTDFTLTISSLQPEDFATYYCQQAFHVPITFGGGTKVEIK	4.93e+06 M⁻¹ s⁻¹

Let us examine a further case.
Summary for this binder, ADI-10177 Fab (Fab, V domains shown, Fab fragment; also called Ab2) VH: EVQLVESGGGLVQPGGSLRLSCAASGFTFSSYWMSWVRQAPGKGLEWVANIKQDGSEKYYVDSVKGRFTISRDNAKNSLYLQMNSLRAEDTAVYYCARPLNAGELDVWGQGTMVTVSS VL: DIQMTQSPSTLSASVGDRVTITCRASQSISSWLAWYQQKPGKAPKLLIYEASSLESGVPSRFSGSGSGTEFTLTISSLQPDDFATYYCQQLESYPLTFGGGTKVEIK : kon is 1.56e+06 M⁻¹ s⁻¹
